Consider the following compounds; for each one, report its hERG current change (%, negative = inhibition) at 10uM.
- TEST_SYSTEM: human ether-à-go-go-related gene (hERG) potassium channel (human)
- PROCEDURE_SUMMARY: primary screen, population patch clamp on CHO cells stably expressing hERG; higher = less effect of the substance
Among all 310,000 compounds or so, about 14,000 (4.5%) showed an effect of 50% or more. Effects have a minus sign here. Shown is part of a subset that was picked to be rich in strong results.
Expressed in %, but write only the number.

Ask: Report hERG current change (%, negative = inhibition) at 10uM for CN1CCc2nc(SC(C(=O)O)c3ccccc3)c(C#N)c(-c3cccs3)c2C1 (stereo not drawn) tested on human ether-à-go-go-related gene (hERG) potassium channel (human).
Reply: 19.4

Ask: Report hERG current change (%, negative = inhibition) at 10uM for C=CCSc1nc2c(c(-c3ccsc3)c1C#N)CN(C)CC2 tested on human ether-à-go-go-related gene (hERG) potassium channel (human).
Reply: -65.2

Ask: Report hERG current change (%, negative = inhibition) at 10uM for C=CCSc1nc(N)c(C#N)c(-c2ccc(C)cc2)c1C#N tested on human ether-à-go-go-related gene (hERG) potassium channel (human).
Reply: 4.13

* * *

- TEST_SYSTEM: human ether-à-go-go-related gene (hERG) potassium channel (human)
- PROCEDURE_SUMMARY: primary screen, population patch clamp on CHO cells stably expressing hERG; higher = less effect of the substance
Among all 310,000 compounds or so, about 14,000 (4.5%) showed an effect of 50% or more. Effects have a minus sign here. This excerpt belongs to a sample that is enriched for strong results.
Consider the following molecules; for each one, report its hERG current change (%, negative = inhibition) at 10uM.
Expressed in %, but write only the number.

Ask: Report hERG current change (%, negative = inhibition) at 10uM for Cc1cc(C)nc(OC(C(=O)O)C(OCC(C)C)(c2ccccc2)c2ccccc2)n1 (centres unmarked) tested on human ether-à-go-go-related gene (hERG) potassium channel (human).
Reply: 17.8

Ask: Report hERG current change (%, negative = inhibition) at 10uM for CCC(C)NC(=O)C1CCN(S(=O)(=O)c2cc([N+](=O)[O-])ccc2Cl)CC1 (centres unmarked) tested on human ether-à-go-go-related gene (hERG) potassium channel (human).
Reply: -0.184

Ask: Report hERG current change (%, negative = inhibition) at 10uM for CCOC(=O)[C@H]1[C@H]2COc3cc(OC)ccc3[C@@H]2N2C(=O)CN(Cc3ccc(OC)cc3)C(=O)[C@@]12C tested on human ether-à-go-go-related gene (hERG) potassium channel (human).
Reply: -1.96

Ask: Report hERG current change (%, negative = inhibition) at 10uM for O=C(CSc1nc2c(sc3ccccc32)c(=O)n1CCCN1CCCC1)NCC1CCCO1 (centres unmarked) tested on human ether-à-go-go-related gene (hERG) potassium channel (human).
Reply: -61.6

Ask: Report hERG current change (%, negative = inhibition) at 10uM for C=CCN(C(=O)CSc1nc2c(sc3ccccc32)c(=O)n1CCN(CC)CC)c1ccccc1 tested on human ether-à-go-go-related gene (hERG) potassium channel (human).
Reply: -77.4

Ask: Report hERG current change (%, negative = inhibition) at 10uM for CCCCn1c(SCC(=O)NCc2ccco2)nc2c(sc3ccccc32)c1=O tested on human ether-à-go-go-related gene (hERG) potassium channel (human).
Reply: -16.8

Ask: Report hERG current change (%, negative = inhibition) at 10uM for O=C(C[n+]1cc(-c2ccc(Cl)c(Cl)c2)n2c1CCC2)c1cccs1.[Br-] tested on human ether-à-go-go-related gene (hERG) potassium channel (human).
Reply: -3.09

Ask: Report hERG current change (%, negative = inhibition) at 10uM for COc1cccc(-c2nnc(SCC(=O)Nc3ccc(OC)c(OC)c3)n2N)c1 tested on human ether-à-go-go-related gene (hERG) potassium channel (human).
Reply: 14.3

Ask: Report hERG current change (%, negative = inhibition) at 10uM for CCN(CC)CCn1c(SCC(=O)NCCC2=CCCCC2)nc2c(sc3ccccc32)c1=O tested on human ether-à-go-go-related gene (hERG) potassium channel (human).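 Also: peak tail current of the secondary pulse compared with the same well before compound.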
Reply: 35.5

Ask: Report hERG current change (%, negative = inhibition) at 10uM for O=C(CSc1nc2c(sc3ccccc32)c(=O)n1CCO)NCc1ccco1 tested on human ether-à-go-go-related gene (hERG) potassium channel (human).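 Also: peak tail current of the secondary pulse compared with the same well before compound.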
Reply: -18.2

Ask: Report hERG current change (%, negative = inhibition) at 10uM for COc1ccc(-c2cc(C(=O)N(C)CCc3ccc(OC)c(OC)c3)c3ccccc3n2)cc1 tested on human ether-à-go-go-related gene (hERG) potassium channel (human).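 Also: peak tail current of the secondary pulse compared with the same well before compound.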
Reply: -29.4

* * *

- TEST_SYSTEM: human ether-à-go-go-related gene (hERG) potassium channel (human, UniProt Q12809);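 also: peak tail current of the secondary pulse compared with the same well before compound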
- Sequence (Q12809 whole entry, looked up): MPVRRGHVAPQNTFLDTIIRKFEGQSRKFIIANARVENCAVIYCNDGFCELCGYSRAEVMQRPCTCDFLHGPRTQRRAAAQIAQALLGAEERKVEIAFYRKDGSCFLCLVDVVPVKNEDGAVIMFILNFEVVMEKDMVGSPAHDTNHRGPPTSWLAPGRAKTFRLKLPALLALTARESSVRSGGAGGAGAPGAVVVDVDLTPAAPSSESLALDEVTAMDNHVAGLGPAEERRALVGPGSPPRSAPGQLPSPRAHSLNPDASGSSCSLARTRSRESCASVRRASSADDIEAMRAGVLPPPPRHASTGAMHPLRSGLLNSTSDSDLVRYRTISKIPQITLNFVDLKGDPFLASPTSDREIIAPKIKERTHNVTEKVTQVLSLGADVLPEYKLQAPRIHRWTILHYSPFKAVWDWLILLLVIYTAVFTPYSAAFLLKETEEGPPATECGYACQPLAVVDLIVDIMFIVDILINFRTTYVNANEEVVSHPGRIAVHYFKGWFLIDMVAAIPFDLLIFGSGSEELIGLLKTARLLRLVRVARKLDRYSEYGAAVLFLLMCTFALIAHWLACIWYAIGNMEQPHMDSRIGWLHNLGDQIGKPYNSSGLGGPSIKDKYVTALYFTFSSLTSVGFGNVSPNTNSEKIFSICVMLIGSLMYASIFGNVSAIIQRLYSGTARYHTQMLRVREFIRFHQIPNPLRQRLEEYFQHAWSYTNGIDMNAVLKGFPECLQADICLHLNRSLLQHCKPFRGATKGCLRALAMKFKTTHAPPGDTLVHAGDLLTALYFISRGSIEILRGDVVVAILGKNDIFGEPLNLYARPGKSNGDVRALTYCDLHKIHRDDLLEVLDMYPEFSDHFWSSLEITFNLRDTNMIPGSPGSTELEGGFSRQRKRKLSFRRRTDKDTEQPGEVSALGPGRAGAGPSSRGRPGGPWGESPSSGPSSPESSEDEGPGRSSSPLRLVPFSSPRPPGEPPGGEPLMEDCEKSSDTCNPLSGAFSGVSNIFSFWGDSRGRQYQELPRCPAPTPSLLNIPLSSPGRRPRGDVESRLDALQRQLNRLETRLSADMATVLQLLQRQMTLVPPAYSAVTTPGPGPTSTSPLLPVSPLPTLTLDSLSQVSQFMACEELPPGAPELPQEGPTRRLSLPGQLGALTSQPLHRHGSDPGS
- PROCEDURE_SUMMARY: primary screen, population patch clamp on CHO cells stably expressing hERG; higher = less effect of the substance
The whole screen tested about 310,000 compounds, of which about 14,000 (4.5%) showed an effect of 50% or more. The effect is printed as a negative number. The sample as a whole holds a higher share of strong results than the screen did.
Consider the following molecules; for each one, report its hERG current change (%, negative = inhibition) at 10uM.
Expressed in %, but write only the number.

Ask: Please report the recorded hERG current change (%, negative = inhibition) at 10uM for CCCNC(=O)C1(CC2CC(c3ccccc3)=NO2)CCN(C(=O)OC(C)(C)C)CC1 (centres unmarked) .
Reply: -48.6

Ask: Please report the recorded hERG current change (%, negative = inhibition) at 10uM for CCCNC(=O)C1(CC2CC(c3ccccc3)=NO2)CCN(C(=O)c2ccccc2)CC1 (centres unmarked) .
Reply: -68.9

Ask: Please report the recorded hERG current change (%, negative = inhibition) at 10uM for CC(C)c1cc(C(=O)N/N=C/c2cccnc2)cs1 .
Reply: -31.9

Ask: Please report the recorded hERG current change (%, negative = inhibition) at 10uM for COc1ccc(CNC(=O)C2(CC3CC(c4ccccc4)=NO3)CCN(C(=O)Cc3ccc(F)cc3)CC2)cc1 (centres unmarked) .
Reply: 18.1

Ask: Please report the recorded hERG current change (%, negative = inhibition) at 10uM for CCCNC(=O)C1(CC2CC(c3ccccc3)=NO2)CCN(C(=O)c2cc(OCC)c(OCC)c(OCC)c2)CC1 (centres unmarked) .
Reply: -34.6

Ask: Please report the recorded hERG current change (%, negative = inhibition) at 10uM for COc1ccc2cc(C(c3nnnn3C3CCCCC3)N3CCCCCC3)c3nnnn3c2c1 (centres unmarked) .
Reply: 4.6

Ask: Please report the recorded hERG current change (%, negative = inhibition) at 10uM for COc1ccc(-c2nnn(Cc3nc(N)nc(N4CCOCC4)n3)n2)cc1OC .
Reply: -0.202

Ask: Please report the recorded hERG current change (%, negative = inhibition) at 10uM for Nc1nc(CSCc2ccccc2)nc(N2CCOCC2)n1 .
Reply: -10.2

Ask: Please report the recorded hERG current change (%, negative = inhibition) at 10uM for COc1ccc([N+](=O)[O-])cc1NC(=O)COC(=O)Cc1cc(OC)c(OC)c(OC)c1 .
Reply: -17.8

Ask: Please report the recorded hERG current change (%, negative = inhibition) at 10uM for COc1ccc(S(=O)(=O)N2CCN(C)CC2)cc1C(=O)Nc1ccccc1 .
Reply: 1.79

Ask: Please report the recorded hERG current change (%, negative = inhibition) at 10uM for Nc1nc(Cn2nnc(-c3ccccc3Cl)n2)nc(N2CCOCC2)n1 .
Reply: -54.4

Ask: Please report the recorded hERG current change (%, negative = inhibition) at 10uM for COc1ccccc1NC(=O)c1cc2c(CO)cnc(C)c2oc1=Nc1ccc(OC)c(OC)c1 .
Reply: 13.3

Ask: Please report the recorded hERG current change (%, negative = inhibition) at 10uM for COc1cc(CC(=O)OCC(=O)Nc2cc([N+](=O)[O-])ccc2F)cc(OC)c1OC .
Reply: -38.9

Ask: Please report the recorded hERG current change (%, negative = inhibition) at 10uM for CCC1(c2ccccc2)NC(=O)N(CC(=O)Nc2ccccc2N2CCCC2)C1=O (centres unmarked) .
Reply: 1.38

Ask: Please report the recorded hERG current change (%, negative = inhibition) at 10uM for CCCNC(=O)C1(CC2CC(c3ccccc3)=NO2)CCN(C(=O)C2(C)CC2)CC1 (centres unmarked) .
Reply: -17

Ask: Please report the recorded hERG current change (%, negative = inhibition) at 10uM for COc1cc2c(cc1OC)/C(=C/c1ccc(Cl)cc1)C(=O)OC2 .
Reply: -36.4

Ask: Please report the recorded hERG current change (%, negative = inhibition) at 10uM for COc1cc(CC(=O)OCC(=O)Nc2cc([N+](=O)[O-])ccc2Cl)cc(OC)c1OC .
Reply: -50

Ask: Please report the recorded hERG current change (%, negative = inhibition) at 10uM for O=C(COC(=O)/C=C/c1cccc(F)c1)Nc1ccc2[nH]c(=O)[nH]c2c1 .
Reply: 9.96

Ask: Please report the recorded hERG current change (%, negative = inhibition) at 10uM for COc1cccc(NC(=O)NNS(=O)(=O)c2ccc(OC)cc2OC)c1 .
Reply: -3

Ask: Please report the recorded hERG current change (%, negative = inhibition) at 10uM for Cc1ccc2c(c1)C(c1ccccc1)N(C(=O)c1ccc(S(=O)(=O)N3CCOCC3)cc1)CC(=O)N2 (centres unmarked) .
Reply: -19.1

Ask: Please report the recorded hERG current change (%, negative = inhibition) at 10uM for O=C(/C=C/c1ccco1)Nc1sc2c(c1C(=O)O)CCC2 .
Reply: -2.95

Ask: Please report the recorded hERG current change (%, negative = inhibition) at 10uM for CCNC(=O)NC(=O)CSc1nc2ccccc2n1CC(C)C .
Reply: -4.02

Ask: Please report the recorded hERG current change (%, negative = inhibition) at 10uM for O=C(N/C(=C/c1ccco1)C(=O)N1CCCC1)c1cccs1 .
Reply: -0.326

Ask: Please report the recorded hERG current change (%, negative = inhibition) at 10uM for CCCCCCCNC(=O)C1(CC2CC(c3cccc(Br)c3)=NO2)CCN(C(=O)c2cc(OCC)c(OCC)c(OCC)c2)CC1 (centres unmarked) .
Reply: 4.79

Ask: Please report the recorded hERG current change (%, negative = inhibition) at 10uM for CC(C(=O)NCC1CCCO1)n1cccc1C(=O)c1ccccc1 (centres unmarked) .
Reply: 15.1

Ask: Please report the recorded hERG current change (%, negative = inhibition) at 10uM for CCCCCCCNC(=O)C1(CC2CC(c3ccc(Cl)cc3)=NO2)CCN(C(=O)Cc2ccc(F)cc2)CC1 (centres unmarked) .
Reply: -11

Measured values drawn from paper PMC4336329 for this set.
